Molecular target: T1, Clostridium difficile toxin B, soluble full-length (TechLab) (Clostridium difficile, UniProt P18177 2-2366)
T1 construct: also called tcdB
T1 sequence (P18177 2-2366 limits assumed): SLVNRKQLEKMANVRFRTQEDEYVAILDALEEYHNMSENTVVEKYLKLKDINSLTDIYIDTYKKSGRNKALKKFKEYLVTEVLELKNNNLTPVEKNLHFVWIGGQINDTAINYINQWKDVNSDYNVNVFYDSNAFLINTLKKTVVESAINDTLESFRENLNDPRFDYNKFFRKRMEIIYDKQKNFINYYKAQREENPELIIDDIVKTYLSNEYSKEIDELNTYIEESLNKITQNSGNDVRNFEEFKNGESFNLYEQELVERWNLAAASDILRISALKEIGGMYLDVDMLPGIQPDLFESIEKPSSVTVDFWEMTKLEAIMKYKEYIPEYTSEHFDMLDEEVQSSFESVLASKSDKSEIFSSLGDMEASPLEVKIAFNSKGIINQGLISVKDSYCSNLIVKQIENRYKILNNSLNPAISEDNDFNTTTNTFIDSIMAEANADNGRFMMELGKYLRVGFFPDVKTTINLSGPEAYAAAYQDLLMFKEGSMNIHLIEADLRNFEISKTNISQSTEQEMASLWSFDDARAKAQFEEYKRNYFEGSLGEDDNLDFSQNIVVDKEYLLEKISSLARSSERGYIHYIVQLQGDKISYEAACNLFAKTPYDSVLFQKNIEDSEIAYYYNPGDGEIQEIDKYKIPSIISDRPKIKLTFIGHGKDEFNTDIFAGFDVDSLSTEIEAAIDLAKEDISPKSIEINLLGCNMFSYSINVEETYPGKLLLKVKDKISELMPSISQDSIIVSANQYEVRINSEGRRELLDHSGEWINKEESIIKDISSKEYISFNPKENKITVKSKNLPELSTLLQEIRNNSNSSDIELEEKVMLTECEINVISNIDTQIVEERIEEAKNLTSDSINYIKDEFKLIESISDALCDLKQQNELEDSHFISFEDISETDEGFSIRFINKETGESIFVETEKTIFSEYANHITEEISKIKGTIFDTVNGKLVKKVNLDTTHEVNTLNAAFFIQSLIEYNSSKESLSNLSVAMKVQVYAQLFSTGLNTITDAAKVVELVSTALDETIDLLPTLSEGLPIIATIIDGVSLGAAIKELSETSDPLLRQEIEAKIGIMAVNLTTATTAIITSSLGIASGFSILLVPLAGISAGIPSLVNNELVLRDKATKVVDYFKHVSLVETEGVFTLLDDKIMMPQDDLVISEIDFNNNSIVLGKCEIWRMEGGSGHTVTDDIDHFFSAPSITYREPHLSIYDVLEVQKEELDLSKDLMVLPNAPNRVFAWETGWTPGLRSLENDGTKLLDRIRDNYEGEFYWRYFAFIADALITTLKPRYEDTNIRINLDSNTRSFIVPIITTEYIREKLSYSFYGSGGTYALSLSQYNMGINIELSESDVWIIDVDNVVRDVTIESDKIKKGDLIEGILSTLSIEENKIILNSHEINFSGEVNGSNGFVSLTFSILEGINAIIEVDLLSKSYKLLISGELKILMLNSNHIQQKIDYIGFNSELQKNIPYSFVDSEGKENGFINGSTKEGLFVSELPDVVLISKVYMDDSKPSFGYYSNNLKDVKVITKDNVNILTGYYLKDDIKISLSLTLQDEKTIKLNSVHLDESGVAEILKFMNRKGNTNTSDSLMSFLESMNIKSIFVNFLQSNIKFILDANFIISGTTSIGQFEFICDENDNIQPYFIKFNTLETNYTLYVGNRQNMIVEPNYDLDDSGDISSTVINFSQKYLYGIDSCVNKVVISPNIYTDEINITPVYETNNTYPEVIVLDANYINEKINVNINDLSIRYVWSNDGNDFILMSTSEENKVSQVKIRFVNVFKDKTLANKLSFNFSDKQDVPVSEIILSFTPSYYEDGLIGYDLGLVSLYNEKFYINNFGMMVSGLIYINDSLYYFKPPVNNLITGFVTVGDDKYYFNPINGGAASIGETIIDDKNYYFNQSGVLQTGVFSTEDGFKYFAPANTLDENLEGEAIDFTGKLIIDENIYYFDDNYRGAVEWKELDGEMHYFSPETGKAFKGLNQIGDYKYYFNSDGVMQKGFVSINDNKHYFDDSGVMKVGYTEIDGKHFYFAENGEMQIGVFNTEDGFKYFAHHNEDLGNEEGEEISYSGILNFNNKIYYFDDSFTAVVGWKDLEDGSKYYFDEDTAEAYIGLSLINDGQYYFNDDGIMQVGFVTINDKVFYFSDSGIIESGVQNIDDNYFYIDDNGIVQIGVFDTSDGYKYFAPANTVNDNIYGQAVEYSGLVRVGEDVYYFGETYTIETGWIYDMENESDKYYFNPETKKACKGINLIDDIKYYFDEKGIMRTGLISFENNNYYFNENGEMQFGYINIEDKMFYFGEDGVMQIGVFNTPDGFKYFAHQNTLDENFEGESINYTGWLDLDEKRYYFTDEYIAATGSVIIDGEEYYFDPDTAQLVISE
Test: SPR Biacore T200, 37C, mAb capture
pKd: −log10 of the molar value.
Binary call on pKd: yes from 9 upward, no beneath that.

binder: H1H3339P (antibody, V domains shown) VH: EVQLVESGGGLVQPGGSLRLSCAVSGFTFSIYAMSWVRQAPGKGLEWVSAISGSGDKTYYADSVKGRFTISRDNSKNTLYLQMNSLRAEDTAVFYCARGWELLNYWGQGTLVTVSS VL: DIQMTQSPSSLSASVGDRVTITCRASLDISNFLAWFQQKPGTAPKSLIYSASSLRTGVPSKFSGSGSGTDFTLTISSLQPEDFATYYCQQYSSYPPTFGPGTKVDIKR
group label: no
//
binder: H1H3344P (antibody, V domains shown) VH: EVQLVESGGGLVQPGGSLRLSCAASGFTFKIYAMSWVRQGPGKGLEWVSAISGNGDKTYYTDSVQGRFTISRDNSKNTLFLQMNSLRAEDTAIYYCARGWELLNYWGQGTLVTVSS VL: DIQMTQSPSSLSASIGDRVTITCRASQDISNSLAWFQQKPGKAPKSLIYAASSLQSGVPSRFSGSGSGTDFTLTISSLQPEDFATYYCQQYIPFPPTFGPGTKVDIKR
group label: no

Evaluate H1H3347P (antibody, V domains shown) VH: EVQLVESGGGLVQPGGSLRLSCVASGFTFTSYAMSWVRQAPGRGLQWVSAIGGSGDSIYYADSVKGRFTISRDNSKNTLYLQMDSLRAEDTAVYYCARGWELLNYWGQGTLVTVSS VL: DIQMTQSPSSLSASVGDRVTITCRASQDIGNFLAWFQQKPGKAPKSLIYAASSLKSGVPSKISGSGSGTDFTLTINSLQPEDFATYYCQQYNIYPPTFGPGTKVDIKR : pKd at minimum 9?
no

Please tell me: is the binder H1H3394P (antibody, V domains shown) VH: QVQLVQSGAEVQKPGASVKVSCKASGYTFTDYYIHWVRQAPGQGLEWMGWINPKTGGTNYAPKFQGRVTMTRDSSIITAYMDLTRLTSDDTAVFYCARRGYNSRWSVFDYWGQGTLVTVSS VL: EIVLTQSPGTLSLSPGERATLSCRASQSVYSNYLAWYQQKRGLAPRLLIYGASSRATGIPDRFSGSGSGTDFTLTISRLEPEDFAVYYCQQHGGSPVTFGGGTKVEIKR at or over 9 in terms of pKd?
yes

Please check the record H1H3335P (antibody, V domains shown) VH: EVQLVESGGGLVRPGGSLRLSCAASGFTFRIYAMSWVRQAPGKGLEWVSGISGSGDNTYYTDSVKGRFIISRDNSKSTLYLQMNSLRAEDTAVYYCARGWELLNYWGQGTLVTVSS VL: DIQMTQSPSSLSAFVGDRVTITCRASQDISNHLAWFQQKPGKVPKSLIYAASSLQSGVPSKFSGSGSGTDFTLTISSLQPEDFATYYCQQYGLYPPTFGPGTKVDIKR and state if its pKd is at or above 9.
no

Is pKd at least 9? Consider H1H3337P (antibody, V domains shown) VH: EVQLVESGGGLVQPGGSLRLSCAASGFTFSIYAMSWVRQAPGKGLEWVSGISGSGGRTYYADSVKGRFTISRDNSKNTLYLQMNSLRVEDTAVYYCARGWELLNFWGQGTLVTVSS VL: DIQMTQSPSSLSASVGDRVTITCRASQGISNNLAWFQQKPGKAPKSLIYAASSLKSGVPSKFSGSGSGTDFTLTINSLQPEDFATYYCHQYNSYPPTFGPGTKVDIKR
no

The measurements presented in this section are drawn from patent US20160264650A1.
